Hello, the source for this data is PubChem BioAssay AID1902, in case you need it.

# SUBJECT_OF_TEST: S. pyogenes SKKanGAS, kanamycin survival, BacTiterGlo, 6 h
# PROCEDURE_DETAILS: S. pyogenes SKKanGAS kanamycin growth inhibitors – SKKanGAS strain, luminescence, dose confirmation, streptokinase promoter inhibitor project, dose response (AID 1902);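 further: lower survival reflects blocked streptokinase promoter driving kanamycin resistance gene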
Measured EC50, listed per entry.

{"columns": ["STRUCTURE_SMILES_STRING", "EC50"],
 "data": [
  ["CC(C)(C)[C@@H]1CCC(=O)N(CC[C@H](Sc2ccccc2)c2ccccc2)CC1", "3.95 µM"],
  ["CCS(=O)(=O)Nc1ccc(-c2cc(-c3ccccc3)c3cc(C)ccc3n2)cc1", "4.03 µM"],
  ["Cc1ccc(-c2cnc(N)n2C)cc1C", "4.13 µM"]
]}

Next item in the queue.
Q) Record request: EC50 value, item CS(=O)(=O)c1ccc([C@@H](O)[C@@H](CO)NC(=O)C(Cl)Cl)cc1
A) 0.74 µM
